Experimental Protocol: Toxicity in BALB/c nude mouse administered orally once daily for 7 days
Protocol Conditions: in vivo, route po, time 7 day
Measurement Kind: MTD at 168 h

* Nc1ccc(/N=N/c2cccc(F)c2F)c(N)n1 | ≤ 100 mg/kg
* CCCc1cc(C(=O)OC)c(NC(=O)C2CCN(C(C)=O)CC2)s1 | ≤ 100 mg/kg

###

Experimental Protocol: Volume of distribution at steady state in CD-1 mouse at 1 mg/kg, iv by LC-MS/MS analysis
Type: ADME, organism-based
Protocol Conditions: CD-1, mouse, in vivo, read-out: Vdss
Measurement Kind: Vd (L/kg)

• Nc1ccc(/N=N/c2cccc(F)c2F)c(N)n1 = 2.81
